assayProtocol: NCI Yeast Anticancer Drug Screen. Data for the mec2-1 strain (AID 157)
cond: S. cerevisiae mec2-1 strain, at 50.0 µM (retest, dose inferred, filed as 5.0), hits give high values
Protocol: Growth inhibition of yeast strains with defined genetic alterations is measured as a screen for potential anti-cancer activity. Selected strains with alterations in DNA damage repair or cell cycle control were exposed to compounds and growth inhibition was measured relative to vehicle treated controls. The strain used in this assay is mec2-1
The panel holds about 79,000 compounds, 15% with a hit somewhere; the sample as a whole holds those more often.
true means recorded growth inhibition is 40% or above; false means it is below 40%.

molecule | classLabel
N#C/C(=C\c1c(Cl)cccc1Cl)c1ccccc1 | false
CC1=NC(C)=C(/C(C)=N/NC(=O)c2ccccc2O)C(C)/C1=C(/C)NNC(=O)c1ccccc1O (stereo not given) | false
COc1cc2c(c(OC)c1OC)-c1ccc(SC)c(=O)cc1[C@@H](NC1OC(COC(C)=O)C(OC(C)=O)C(OC(C)=O)C1OC(C)=O)CC2 (stereo not given in full) | false
C=C/C=C/CC=C | false
O=C1CSC(c2cccc([N+](=O)[O-])c2)N1c1ccc(-c2ccc(-n3c(-c4ccccc4)nc4ccccc4c3=O)cc2)cc1 (stereo not given) | false
CC(=O)c1c2c(cc3c1CC1(C3)Cc3ccc4c(c3C1=O)CCC4)CCC2 (stereo not given) | false
C/C(=N/Nc1ccc([N+](=O)[O-])cc1[N+](=O)[O-])C1=CCC(C(C)(C)C)CC1 (stereo not given) | false
CN(Cc1cnc2nc(N)nc(N)c2n1)c1ccc(C(=O)NC(CCC(=O)O)C(=O)O)cc1 (stereo not given) | true
CC(C)(C)C(=O)CC(=O)C(F)(F)C(F)(F)C(F)(F)F.CC(C)(C)C(=O)CC(=O)C(F)(F)C(F)(F)C(F)(F)F.CC(C)(C)C(=O)CC(=O)C(F)(F)C(F)(F)C(F)(F)F.[Fe] | true
CCN(CC)C(=S)N/N=C/c1cc([N+](=O)[O-])ccc1O | true
S=C(N/N=C/c1ccccn1)N1CCCCCC1 | true
CCCCN(CCCC)CCC(O)(c1ccc(OC)c2ccccc12)C(O)(CCN(CCCC)CCCC)c1ccc(OC)c2ccccc12 (stereo not given) | true
COc1c2occc2c(OC)c2c(C)c(C(=O)OCCN3CCOCC3)oc12 | false
C/C=C/CC(C/C=C/C)C1CC[N-]CC1.C/C=C/CC(C/C=C/C)C1CC[N-]CC1.[Cl][Pt+2]([Cl])([Cl])[Cl] | true
C[CH2][Ge]([CH2]C)([CH2]C)[O]C(=O)C([O][Ge]([CH2]C)([CH2]C)[CH2]C)c1ccccc1 (stereo not given) | false
COCCN1C(=O)C2c3[nH]c4ccccc4c3C3CCC(C(C)(C)C)CC3C2C1=O (stereo not given) | true
CCN(CC)C(=O)C1(OC(C)=O)CCCCC1 | false
CN(C)CCNc1ccc(O)c2sc3ccccc3c(=O)c12 | true
COC(=O)C12Oc3ccc(-c4ccc5c(c4O)C(O)=C4C(=O)CC(C)C(O)C4(C(=O)OC)O5)c(O)c3C(O)=C1C(=O)CC(C)C2O (stereo not given) | true
OC[P+](CO)(CO)C12CC3CC(CC(C3)C1)C2 | false
O=[N+]([O-])c1cc(CN(CCO)CCO)c(O)c2ncccc12 | true
CCOC(=O)C(C(=O)OCC)C1(c2ccccc2)OC(=O)c2ccccc21 (stereo not given) | false
CCOP(=O)(OCC)/C(=C\NC(=S)N=Nc1c(O)[nH]c2ccccc12)C(=O)OC | true
O=C(NCCCCCNC(=O)C12CC3CC(CC(C3)C1)C2)C12CC3CC(CC(C3)C1)C2 | false
N#Cc1ccc([N+](=O)[O-])o1 | true
CC(C)c1ccc(/C=C2\CSCC3=C2NC(=S)NC3c2ccc(C(C)C)cc2)cc1 (stereo not given) | true
O=C(O)c1ccc2c3c(ncnc13)-c1ccccc1C2=O | true
C=C(c1ccccc1)[N+](=O)[O-] | true
O=C1c2ccccc2C(c2ccccc2)(c2ccccc2)N1c1ccccc1 | true
CN1c2ccccc2C(C)(C)C12C=Cc1cc(O)ccc1O2 (stereo not given) | false
CCOC(=O)c1[nH]n(-c2ccccc2)c(=O)c1/C=N/C(=S)Nc1ccccc1OC | false
CCN(CC)CCOc1ccc(-c2nc3cc(Cl)ccc3s2)cc1 | true
N#CC1C=C(Cl)c2ccc(Cl)cc2N1C(=O)c1ccccc1 (stereo not given) | true
O=S(=O)(c1ccc(O)cc1)c1ccc(Cl)cc1 | false
O=C1c2ccccc2C(=O)c2sc(Nc3cccc(Cl)c3)nc21 | true
COc1cccc2c1C(=O)c1c(O)c(COC3CC(N)C(O)C(C)O3)cc(O)c1C2=O (stereo not given) | true
CC(CO)[C@H]1OC(=O)C=C2[C@@]13O[C@@H]3[C@H]1OC(=O)[C@@]3(C)[C@H]4O[C@H]4C[C@@]2(C)[C@@H]13 (stereo not given in full) | true
[N-]=[N+]=Nc1c(Cc2ccccc2)c(=O)oc2ccccc12 | true
